TARGET: Mu-type opioid receptor (Mus musculus) (UniProt P42866)
Sequence (P42866 whole entry): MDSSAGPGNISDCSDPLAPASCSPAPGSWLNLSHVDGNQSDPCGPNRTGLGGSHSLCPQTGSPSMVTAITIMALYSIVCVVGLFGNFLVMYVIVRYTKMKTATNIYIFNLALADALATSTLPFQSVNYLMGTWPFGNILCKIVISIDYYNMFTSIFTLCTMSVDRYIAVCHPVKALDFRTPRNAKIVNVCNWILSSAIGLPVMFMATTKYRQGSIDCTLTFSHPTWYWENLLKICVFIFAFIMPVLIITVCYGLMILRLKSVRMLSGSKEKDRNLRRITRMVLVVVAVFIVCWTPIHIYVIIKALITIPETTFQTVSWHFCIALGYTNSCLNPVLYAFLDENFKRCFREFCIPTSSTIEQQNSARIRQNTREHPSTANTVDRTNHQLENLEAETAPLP
TEST_DESCRIPTION: Displacement of [3H]diprenorphine from mouse MOR expressed in HEK293 cell membrane at 10 uM incubated for 1 hr by radioligand displacement assay
Format: cell membranes
Active and inactive are the calls of the source. No cut-off for these calls is given here. Numbered stars: 1 amine (or outer) side, 2 acyl side, 3 side chain; on linkers, the order of the positions; unused ones are H or OH. Bridge positions count the residues as written; N and C are the ends. Square brackets hold non-standard residues; d marks the D form. Peptide text beside a SMILES is read from it. CH2COCH2 = O=C(C[*:1])C[*:2]; CH2 = C([*:1])[*:2]; Mpa = O=C(O)CCS
MEASURED_PROPERTY: Activity

Record summary for CC(C)C[C@H](NC(=O)[C@H](CCCCN)NC(=O)[C@@H]1CCCN1C(=O)[C@H](CCCNC(=N)N)NC(=O)[C@@H]1CSCC(=O)CSCCC(=O)N[C@@H](Cc2ccc(O)cc2)C(=O)NCC(=O)NCC(=O)N[C@@H](Cc2ccccc2)C(=O)N[C@@H](CC(C)C)C(=O)N[C@@H](CCCNC(=N)N)C(=O)N[C@@H](CCCNC(=N)N)C(=O)N1)C(=O)N[C@@H](CCCCN)C(N)=O ([Mpa]YGGFLRRCRPKLK-NH2; linker 1-9 via CH2COCH2) : reported Activity = inactive

Record summary for CC[C@H](C)[C@@H]1NC(=O)[C@H](CCCNC(=N)N)NC(=O)[C@H](CCCNC(=N)N)NC(=O)[C@H](CC(C)C)NC(=O)[C@H](Cc2ccccc2)NC(=O)CNC(=O)CNC(=O)[C@H](Cc2ccc(O)cc2)NC(=O)CCSCSC[C@@H](C(=O)N[C@@H](CCCCN)C(=O)N[C@@H](CC(C)C)C(=O)N[C@@H](CCCCN)C(=O)O)NC(=O)[C@H](CCCNC(=N)N)NC1=O ([Mpa]YGGFLRRIRCKLK-OH; linker 1-11 via CH2) : reported Activity = inactive

Record summary for CC[C@H](C)[C@@H]1NC(=O)[C@H](CCCNC(=N)N)NC(=O)[C@H](CCCNC(=N)N)NC(=O)[C@H](CC(C)C)NC(=O)[C@H](Cc2ccccc2)NC(=O)CNC(=O)CNC(=O)[C@H](Cc2ccc(O)cc2)NC(=O)CCSCSC[C@@H](C(=O)N[C@@H](CCCCN)C(=O)N[C@@H](CC(C)C)C(=O)N[C@@H](CCCCN)C(N)=O)NC(=O)[C@H](CCCNC(=N)N)NC1=O ([Mpa]YGGFLRRIRCKLK-NH2; linker 1-11 via CH2) : reported Activity = inactive
